- PROTOCOL_NOTES: growth suppression of yeast trafficking mutant, preliminary HTS, modulators of trafficking downstream of Golgi apparatus project, 1536-format plate, OD 615 nm (AID 637)
- CONDITIONS: yeast transport mutant growth, absorbance 615 nm, 18 h; stronger effect = higher value
# inhibition values compiled below
Express it in %; write the number only.

Check out these entries, answers already filled in.
> print(dat)
                                   compound  recorded.value
1  CCN(CC)S(=O)(=O)N1CCC(C(=O)NCC2COc3ccccc3O2)CC1 (stereo unspecified)            3.65
2       COc1cccc(C(=O)Nc2ccc(N(C)C)cc2)c1OC           -1.27

QUERY: State its inhibition for this compound: Cc1ccc(S(=O)(=O)N2C(=O)CCC2C(=O)Nc2ccc3c(c2)OCCO3)cc1 (stereo unspecified)
RESULT: -1.67

---

- PROTOCOL_NOTES: reversal of MRP1-mediated doxorubicin resistance, pilot screen, H69AR cells, doxorubicin co-treatment (AID 601)
- CONDITIONS: H69AR cells + 2 uM doxorubicin, CellTiter-Glo, 72 h; at 10 µM; stronger effect = higher value
TEST_READOUT: differential viability (reversal) (%)
Express it in %; write the number only.

Check out these entries, answers already filled in.
> print(dat)
                                    compound  recorded.value
 1   [O-][n+]1c2c(nn1-c1ccccc1Cl)-c1nonc1CC2              20
 2           COc1ccc(-c2noc(CCCC(=O)O)n2)cc1            5.04
 3                 CCCOc1cccc(-c2nnc(N)s2)c1            21.6
 4  CCCN1C(=O)SC(CC(=O)Nc2ccc(Br)cc2)C1=O (stereo not given)            4.58
 5  CCOc1ccccc1N1CCN(c2nc(N)c(C#N)c(CC#N)c2C#N)CC1           -22.8
 6  Cc1nn(-c2ccc(Cl)cc2)c2sc(C(=O)N3CCN(c4ccccn4)CC3)cc12            9.58
 7          Cn1nc(C(=O)N2CCOCC2)c2ccccc2c1=O            5.89
 8             COCCNc1oc(-c2ccc(C)cc2)nc1C#N            8.44
 9  CCC(OC(=O)c1cccs1)C(=O)NCc1ccco1 (stereo not given)            9.38
10  O=C(c1ccc(Cl)cc1)N(Cc1cccs1)C1CCS(=O)(=O)C1 (stereo not given)           -8.41

QUERY: State its differential viability (reversal) for this compound: COc1ccccc1OCCOc1ccccc1/C=N/n1cnnc1
RESULT: -22.5

QUERY: State its differential viability (reversal) for this compound: CCNC(=O)N1c2ccc(OCC)cc2C(C)=CC1(C)C
RESULT: -1.44

QUERY: State its differential viability (reversal) for this compound: CCC(Sc1ccc(C(=O)O)cc1)C(=O)O (stereo not given)
RESULT: 3.74

---

- PROTOCOL_NOTES: SK-BR-3 cell growth inhibitors, pilot screen, 24 h, human (AID 572);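 note: compound exposure lasted between 18 and 24 h rather than exactly 24 h; 100% = carrier-treated control wells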
- CONDITIONS: SK-BR-3 viability, CellTiter-Glo luminescence, at 10 µM, stronger effect = lower value
Rule for this label: Satisfied means viability is less than 90%; Not satisfied means viability is at least 90%.

> print(dat)
                 molecule   category
1  O=C1CCNc2cc3ccccc3cc21  Satisfied

QUERY: Consider CCOc1ccc(N2CC(C(=O)Nc3cccc(C)c3C)CC2=O)cc1 (stereo not drawn) . Does its viability lie strictly below 90%?
RESULT: Not satisfied

QUERY: Consider CCN(CC)CCCn1c(=S)[nH]c2cc(Cl)ccc2c1=O . Does its viability lie strictly below 90%?
RESULT: Not satisfied

---

- PROTOCOL_NOTES: reducers of endogenous Her2 protein level, primary screen, SKBR3 breast tumor cells, AlphaScreen, ATP viability (AID 461);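 for viability: percent of carrier control wells set as 100% viability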
- CONDITIONS: 18-24 h, measured here: SKBR3 viability, ATP luminescence, at 10 µM
TEST_READOUT: viability (%)
Express it in %; write the number only.

QUERY: State its viability for this molecule: CCOC(=O)N1CCC(NC(=O)CCN2C(=O)COc3ccccc32)CC1
RESULT: 100

QUERY: State its viability for this molecule: COc1ccc(NC(=O)CN2CCN(CC(=O)Nc3cc(OC)cc(OC)c3)CC2)cc1
RESULT: 79

QUERY: State its viability for this molecule: CCN(CC)CCCN(Cc1cc2cc(OC)ccc2[nH]c1=O)C(=O)Nc1ccccc1
RESULT: 90

QUERY: State its viability for this molecule: Cc1cc(N2CCC3(CC2)OCCO3)n2nc(C)c(-c3ccc(Cl)cc3)c2n1
RESULT: 84.5

QUERY: State its viability for this molecule: O=C(Cc1cccs1)Nc1nnc(CCc2ccccc2)s1
RESULT: 110

QUERY: State its viability for this molecule: COc1ccc(C2/C(=C(/O)c3cnn(-c4ccccc4)c3C)C(=O)C(=O)N2CCN(C)C)cc1OC (centres undefined)
RESULT: 109

---

- PROTOCOL_NOTES: SK-BR-3 cell growth inhibitors, pilot screen, 24 h, human (AID 572);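 note: compound exposure lasted between 18 and 24 h rather than exactly 24 h; 100% = carrier-treated control wells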
- CONDITIONS: SK-BR-3 viability, CellTiter-Glo luminescence, at 10 µM, stronger effect = lower value
TEST_READOUT: viability (%)
Express it in %; write the number only.

Check out these entries, answers already filled in.
> print(dat)
                                   compound  test.readout  recorded.value
1    Cc1cccc(NC(=O)Cn2c(=O)n(C)c3ccccc32)c1     viability             100
2    O=C(NCC(=O)N1CCC(N2CCCCC2)CC1)C1CCCCC1     viability            88.5
3      CCOc1ccc(NCCC(=O)c2ccc3c(c2)OCO3)cc1     viability              90
4  COc1cccc(C2C(C(=O)c3cc4ccccc4o3)=C(O)C(=O)N2CCN(C)C)c1OC (stereo not drawn)     viability             104
5       Cc1[nH]n2c(=O)cc(Cc3ccccc3)nc2c1C#N     viability            97.5

QUERY: State its viability for this compound: Cc1ccc(Cn2ncc3c(NCCCN4CCOCC4)ncnc32)cc1
RESULT: 92.5

QUERY: State its viability for this compound: O=C(O)CCCC(=O)Nc1nc(-c2ccc(F)cc2)cs1
RESULT: 97.5

QUERY: State its viability for this compound: COc1ccc(CN(CC(=O)NCC2CCCO2)C(=O)CNS(=O)(=O)c2ccc(C)cc2)cc1 (stereo not drawn)
RESULT: 107

QUERY: State its viability for this compound: O=C(NCCN1CCOCC1)C1CC(=O)N(c2ccc(F)c(Cl)c2)C1 (stereo not drawn)
RESULT: 124

QUERY: State its viability for this compound: Cc1ccc(C)c(OCC(O)CN2C(C)CCCC2C)c1 (stereo not drawn)
RESULT: 70

---

# Her2 level values compiled below
- SYSTEM_NAME: Receptor tyrosine-protein kinase erbB-2 (Homo sapiens) (UniProt P04626)
- Sequence (P04626 whole entry, looked up): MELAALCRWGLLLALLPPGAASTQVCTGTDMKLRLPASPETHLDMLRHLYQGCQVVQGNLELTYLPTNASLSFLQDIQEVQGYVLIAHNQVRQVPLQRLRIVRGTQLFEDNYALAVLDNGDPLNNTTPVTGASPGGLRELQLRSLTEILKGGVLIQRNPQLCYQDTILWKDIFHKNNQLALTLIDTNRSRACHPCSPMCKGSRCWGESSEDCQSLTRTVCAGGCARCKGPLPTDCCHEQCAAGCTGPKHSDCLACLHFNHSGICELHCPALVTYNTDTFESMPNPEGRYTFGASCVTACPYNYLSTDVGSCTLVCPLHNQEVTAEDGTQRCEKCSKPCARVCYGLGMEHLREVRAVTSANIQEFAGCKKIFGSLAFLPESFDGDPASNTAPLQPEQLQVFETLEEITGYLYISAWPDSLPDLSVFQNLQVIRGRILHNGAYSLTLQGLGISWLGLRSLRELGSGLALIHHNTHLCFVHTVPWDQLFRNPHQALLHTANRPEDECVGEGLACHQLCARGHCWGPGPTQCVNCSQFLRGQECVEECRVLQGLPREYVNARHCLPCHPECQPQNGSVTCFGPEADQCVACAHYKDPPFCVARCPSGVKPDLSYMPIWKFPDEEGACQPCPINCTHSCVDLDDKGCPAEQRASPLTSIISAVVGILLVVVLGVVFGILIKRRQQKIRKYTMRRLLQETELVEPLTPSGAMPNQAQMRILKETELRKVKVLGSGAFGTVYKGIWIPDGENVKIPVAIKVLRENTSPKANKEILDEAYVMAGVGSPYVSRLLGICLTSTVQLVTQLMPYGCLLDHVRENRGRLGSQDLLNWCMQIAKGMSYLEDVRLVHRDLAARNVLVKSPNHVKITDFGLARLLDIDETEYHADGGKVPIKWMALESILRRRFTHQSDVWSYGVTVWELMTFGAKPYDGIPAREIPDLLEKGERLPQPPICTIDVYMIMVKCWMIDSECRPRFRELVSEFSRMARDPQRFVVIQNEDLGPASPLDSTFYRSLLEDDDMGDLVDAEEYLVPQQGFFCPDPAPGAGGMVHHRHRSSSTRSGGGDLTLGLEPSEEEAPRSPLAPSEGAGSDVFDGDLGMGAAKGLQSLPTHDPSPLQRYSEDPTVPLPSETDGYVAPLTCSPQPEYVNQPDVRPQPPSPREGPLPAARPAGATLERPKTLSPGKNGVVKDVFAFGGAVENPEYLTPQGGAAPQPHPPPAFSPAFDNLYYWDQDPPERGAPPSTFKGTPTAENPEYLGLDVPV
- PROTOCOL_NOTES: reducers of endogenous Her2 protein level, primary screen, SKBR3 breast tumor cells, AlphaScreen, ATP viability (AID 461);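 for Her2 level: lower value means less Her2 protein in the cells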;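 for viability: percent of carrier control wells set as 100% viability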
- CONDITIONS: 18-24 h, at 10 µM, stronger effect = lower value
Express it in %; write the number only.

QUERY: State its Her2 level for this compound: COc1ccc(NC(=O)CSC2=C(C#N)C(c3ccco3)C3=C(CCCC3=O)N2)c(OC)c1 (stereo unspecified)
RESULT: 93

QUERY: State its Her2 level for this compound: COc1ccc(-c2cc(C(F)(F)F)n3nc(C(=O)N4CCOCC4)nc3n2)cc1
RESULT: 116

QUERY: State its Her2 level for this compound: COc1cc2c(C)nc(C)c(C#N)c2cc1OC
RESULT: 93.5

QUERY: State its Her2 level for this compound: Cc1cc(C(=O)CN2C(=O)c3ccccc3C2=O)c(C)n1Cc1cccs1
RESULT: 99

QUERY: State its Her2 level for this compound: c1ccc(-n2cnc3cc(NCc4ccccn4)ccc32)cc1
RESULT: 90.5

QUERY: State its Her2 level for this compound: CC1(C)Cc2noc(N)c2C(C)(C)N1OC(=O)c1ccco1
RESULT: 82.5

QUERY: State its Her2 level for this compound: CCOC(=O)c1cc2cc(F)ccc2nc1C
RESULT: 112

QUERY: State its Her2 level for this compound: C[C@H](NC(=O)Nc1ccccc1F)C(=O)O
RESULT: 96

---

- PROTOCOL_NOTES: reversal of MRP1-mediated doxorubicin resistance, pilot screen, H69AR cells, doxorubicin co-treatment (AID 601)
- CONDITIONS: H69AR cells + 2 uM doxorubicin, CellTiter-Glo, 72 h; measured here: viability with 2 uM doxorubicin; at 10 µM; stronger effect = lower value
# viability values compiled below
Express it in %; write the number only.

Check out these entries, answers already filled in.
> print(dat)
                                   compound  test.readout  recorded.value
1             COc1ccc(C(=O)NCCSc2ccccn2)cc1     viability            78.6
2  CC1Cc2cc(/C(O)=C3/C(=O)C(=O)N(CCN4CCOCC4)C3c3cccc(O)c3)ccc2O1 (centres undefined)     viability             104
3     c1ccc(-n2c(Sc3cnccn3)nnc2-c2cccs2)cc1     viability            88.5
4  Cc1cc(/C=N/n2cnnc2)c(C)n1-c1ccc(Cl)cc1Cl     viability            80.5
5  Cc1ccccc1-n1c(=O)cc(N2CCN(C(=O)c3ccco3)CC2)[nH]c1=O     viability            88.5

QUERY: State its viability for this compound: O=C(CCn1nc(-c2ccccc2)ccc1=O)N1CCCC1
RESULT: 94.9

Values compiled from PubChem BioAssay.
